Target: actin (Example II solid-phase assay and BIAcore; source not stated) (Oryctolagus cuniculus (Rabbit), UniProt P68135 3-377)
Assay: SPR, BIAcore 3000, actin amine-coupled to CM5 chip; column heads taken as printed
Where no end group is shown, it is not given here.
metricName: Kd (µM)
// note: answer is a bare numeric in µM

For the binder shown here, truncated RNASET2 polypeptide trT2-49 (other, Described as amino acids 49-232 of full length, native RNASET2; also called truncated T2 polypeptide) EGCNRSWPFNLEEIKDLLPEMRAYWPDVIHSFPNRSRFWKHEWEKHGTCAAQVDALNSQKKYFGRSLELYRELDLNSVLLKLGIKPSINYYQVADFKDALARVYGVIPKIQCLPPSQDEEVQTIGQIELCLTKQDQQLQNCTEPGEQPSPKQEVWLANGAAESRGLRVCEDGPVFYPPPKKTKH , give the reported Kd.
7.72

Entry trT2-49m polypeptide (other) EGCNRSWPFNLEEIKDLLPEMRAYWPDVIHSFPNRSRFWKHEWEKHGTCAAQVDALNSQKKYFGRSLELYRADFKDALARVYGVIPKIQCLPPSQDEEVQTIGQIELCLTKQDQQLQNCTEPGEQPSPKQEVWLANGAAESRGLRVCEDGPVFYPPPKKTKH has what Kd?
19.4

Endpoint output: Kd of KKYFGRSLELYRELDLNSVLLKLGIK (not fully specified, Synthetic 26 aa peptide of human RNASET2 (helix 5 and 6), tested free in solution in ELISA and SPR; also called 22B; T2 peptide) [peptide K108-K133] . Value?
14.2

GET /values?readout=Kd&item= peptide A103-Q159 (Synthetic peptide of human RNASET2, tested free in solution; also called 22A) peptide: ALNSQKKYFGRSLELYRELDLNSVLLKLGIKPSINYYQVADFKDALARVYGVIPKIQ
0.00322
